Attribution: ChEMBL document CHEMBL2157928

Please respond with reported pEC50 for every item in the list.
Target: Peroxisome proliferator-activated receptor alpha (Homo sapiens)
Sequence (Q07869 whole entry, the tested form may be a part): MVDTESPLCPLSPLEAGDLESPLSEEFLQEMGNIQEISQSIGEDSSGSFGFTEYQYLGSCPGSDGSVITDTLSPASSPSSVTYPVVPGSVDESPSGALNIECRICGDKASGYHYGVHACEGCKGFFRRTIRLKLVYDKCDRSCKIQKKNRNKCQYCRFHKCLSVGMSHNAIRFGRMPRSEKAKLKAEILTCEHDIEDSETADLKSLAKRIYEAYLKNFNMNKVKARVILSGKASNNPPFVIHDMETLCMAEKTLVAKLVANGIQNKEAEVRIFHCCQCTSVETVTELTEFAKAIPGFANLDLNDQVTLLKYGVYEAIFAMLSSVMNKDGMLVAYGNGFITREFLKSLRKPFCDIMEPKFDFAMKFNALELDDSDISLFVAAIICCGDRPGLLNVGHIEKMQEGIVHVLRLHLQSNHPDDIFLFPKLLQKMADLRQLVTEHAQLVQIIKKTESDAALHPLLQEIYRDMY
Assay: Transactivation of GAL4-fused PPARalpha ligand binding domain transfected in human HepG2 cells after 20 hrs by luciferase reporter gene assay
pEC50: −log10 of the molar value.

# lookup: pEC50 of OC[C@H]1O[C@@H](O[C@@H]2C[C@H](CCc3ccc(O)c(O)c3)O[C@H](c3ccc(O)c(O)c3)C2)[C@H](O)[C@@H](O)[C@@H]1O [PLANTAGINEOSIDE C] < 4.30

# lookup: pEC50 of OC[C@H]1O[C@@H](O[C@H](CCc2ccc(O)cc2)C[C@H](O)CCc2ccc(O)cc2)[C@H](O)[C@@H](O)[C@@H]1O < 4.30

# lookup: pEC50 of O=C(CCCCc1ccc(O[C@@H]2O[C@H](CO)[C@@H](O)[C@H](O)[C@H]2O)c(O)c1)CCc1ccc(O[C@@H]2O[C@H](CO)[C@@H](O)[C@H](O)[C@H]2O)c(O)c1 [PLANTAGINEOSIDE A] 4.33

# lookup: pEC50 of OC[C@H]1O[C@@H](O[C@H](CCc2ccc(O)c(O)c2)C[C@H](O)CCc2ccc(O)cc2)[C@H](O)[C@@H](O)[C@@H]1O 4.37

# lookup: pEC50 of OC[C@H]1O[C@@H](O[C@H](CCc2ccc(O)c(O)c2)C[C@H](O)CCc2ccc(O)c(O)c2)[C@H](O)[C@@H](O)[C@@H]1O < 4.30

# lookup: pEC50 of OC[C@H]1O[C@@H](Oc2ccc(CCCC[C@H](O)CCc3ccc(O[C@@H]4O[C@H](CO)[C@@H](O)[C@H](O)[C@H]4O)c(O)c3)cc2O)[C@H](O)[C@@H](O)[C@@H]1O [PLANTAGINEOSIDE B] < 4.30
